Biological target: PI3K isoform δ (Homo sapiens (Human), UniProt O00329)
Sequence (O00329 whole entry, canonical isoform): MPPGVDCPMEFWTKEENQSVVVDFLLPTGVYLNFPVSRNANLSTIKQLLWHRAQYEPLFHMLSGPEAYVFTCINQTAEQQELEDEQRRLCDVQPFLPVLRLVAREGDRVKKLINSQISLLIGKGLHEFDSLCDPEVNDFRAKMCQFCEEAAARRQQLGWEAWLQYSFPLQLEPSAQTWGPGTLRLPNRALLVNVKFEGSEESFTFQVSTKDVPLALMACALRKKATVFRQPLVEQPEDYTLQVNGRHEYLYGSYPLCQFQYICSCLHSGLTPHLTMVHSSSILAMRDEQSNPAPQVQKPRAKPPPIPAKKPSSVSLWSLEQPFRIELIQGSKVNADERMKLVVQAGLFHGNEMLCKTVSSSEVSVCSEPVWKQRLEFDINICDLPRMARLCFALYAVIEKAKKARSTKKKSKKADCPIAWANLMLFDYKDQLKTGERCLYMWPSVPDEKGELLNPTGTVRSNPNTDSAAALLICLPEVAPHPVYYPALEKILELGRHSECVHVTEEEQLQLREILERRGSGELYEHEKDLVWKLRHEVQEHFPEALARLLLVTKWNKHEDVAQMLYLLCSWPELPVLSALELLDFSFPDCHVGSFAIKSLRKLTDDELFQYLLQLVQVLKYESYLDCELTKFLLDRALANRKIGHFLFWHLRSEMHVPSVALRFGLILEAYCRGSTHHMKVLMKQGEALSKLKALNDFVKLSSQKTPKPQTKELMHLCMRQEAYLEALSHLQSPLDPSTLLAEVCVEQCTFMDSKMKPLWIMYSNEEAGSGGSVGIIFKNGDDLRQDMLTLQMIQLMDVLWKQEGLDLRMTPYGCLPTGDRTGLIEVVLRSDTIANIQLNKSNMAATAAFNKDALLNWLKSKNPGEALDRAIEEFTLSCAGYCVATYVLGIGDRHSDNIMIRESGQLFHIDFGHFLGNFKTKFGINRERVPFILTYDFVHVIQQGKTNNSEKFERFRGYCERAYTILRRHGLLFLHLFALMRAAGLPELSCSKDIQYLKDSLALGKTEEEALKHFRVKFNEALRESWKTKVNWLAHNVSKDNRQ
Sequence (P27986 whole entry partner, canonical isoform): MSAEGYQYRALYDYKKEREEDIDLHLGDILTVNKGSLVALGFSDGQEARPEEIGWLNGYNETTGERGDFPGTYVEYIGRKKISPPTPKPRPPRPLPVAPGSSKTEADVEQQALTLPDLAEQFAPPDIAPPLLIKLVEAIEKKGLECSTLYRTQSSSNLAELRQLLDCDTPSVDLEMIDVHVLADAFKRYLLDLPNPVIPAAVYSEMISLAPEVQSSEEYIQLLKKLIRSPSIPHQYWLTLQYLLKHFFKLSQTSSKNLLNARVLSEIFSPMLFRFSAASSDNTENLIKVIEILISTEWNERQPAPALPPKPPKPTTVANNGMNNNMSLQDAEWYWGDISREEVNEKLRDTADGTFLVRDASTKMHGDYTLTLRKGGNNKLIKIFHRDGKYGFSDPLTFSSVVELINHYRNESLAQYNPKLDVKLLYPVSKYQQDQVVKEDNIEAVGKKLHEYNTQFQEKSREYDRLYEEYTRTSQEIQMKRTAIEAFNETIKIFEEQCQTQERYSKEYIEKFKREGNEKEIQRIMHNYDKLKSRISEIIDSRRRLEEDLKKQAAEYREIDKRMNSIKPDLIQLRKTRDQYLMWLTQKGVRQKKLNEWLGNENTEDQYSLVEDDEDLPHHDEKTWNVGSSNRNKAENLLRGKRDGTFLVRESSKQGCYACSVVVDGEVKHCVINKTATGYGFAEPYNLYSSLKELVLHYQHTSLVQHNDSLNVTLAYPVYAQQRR
Assay: TR-FRET assay of enzymatic activity of class I PI3K isoforms
Details: read-out: IC50 (nM) for PI3K isoform δ (Table 3); TR-FRET; 2× Km ATP, 2 μM PIP2; incubated for 30 minutes at 25° C.
assay-readout: IC50 (nM)

Fill in the blank: the reported IC50 of Cc1nc(N)c(Br)c(N[C@@H](C)c2nc3cccc(Cl)c3c(=O)n2-c2cc(F)cc(F)c2)n1 [Compound 21] is ____.
30

Fill in the blank: the reported IC50 of C[C@H](Nc1nc(N)nc(N)c1C#N)c1nc2c(F)ccc(CCCN3CCC(F)(F)C3)c2c(=O)n1-c1ccccc1 [Compound 55] is ____.
0.4

(1) C[C@H](Nc1nc(N)nc(N)c1C#N)c1nc2c(F)ccc(CCCN3CCCC3)c2c(=O)n1-c1ccccc1 [Compound 50]
(2) C[C@H](Nc1nc(N)nc(N)c1C#N)c1nc2cccc(CCCN3CCC4(COC4)C3)c2c(=O)n1-c1ccccc1 [Compound 63]
Lab note: check whether 1 or 2 has the lower measured IC50. To answer, give the label that identifies your chosen option.
2
(2: 0.8 nM, 1: 1.3 nM)

(A) Nc1nc(N)c(Cl)c(N2CCOC[C@H]2c2nc3cccc(Cl)c3c(=O)n2-c2ccccc2)n1 [Compound 100]
(B) C[C@H](Nc1nc(N)nc(N)c1C#N)c1nc2cccc(S(=O)(=O)c3ccccc3)c2c(=O)n1-c1cccc(F)c1 [Compound 76]
Between A and B , whose measured IC50 reads higher? To answer, give the label that identifies your chosen option.
A
